# experiment description: Metabolic stability in human liver microsomes assessed as intrinsic clearance at 0.5 uM incubated for 40 mins in presence of NADPH
# Type: ADME, Microsome
# test settings: read-out: CLH
readout name: microsomal CLint at 0.5 µM (µL/min/mg)

Here are 5 compounds together with their reported answers.
Ask: // Input: Nc1nc2ccc(C(=O)N3CCOCC3c3ccc(C(F)(F)F)cn3)cc2c2c1COC2 (racemic) . Output its microsomal CLint at 0.5 µM only.
Reply: 37

Ask: // Input: Nc1nc2ccc(C(=O)N3CCOC[C@@H]3c3ccc(C(F)(F)F)nc3)cc2c2c1COC2 . Output its microsomal CLint at 0.5 µM only.
Reply: 14

Ask: // Input: C[C@H](c1ncccn1)N(Cc1ccc(C(F)(F)F)cn1)C(=O)c1cc2c3c(c(N)nc2cn1)COC3 . Output its microsomal CLint at 0.5 µM only.
Reply: 67

Ask: // Input: Nc1nc2ccc(C(=O)N3CCOC[C@@H]3c3ccc(Cl)cc3)cc2c2c1COC2 . Output its microsomal CLint at 0.5 µM only.
Reply: 42

Ask: // Input: Nc1nc2ccc(C(=O)N3CCOC[C@@H]3c3ccc(C(F)(F)F)cc3)cc2c2c1COC2 . Output its microsomal CLint at 0.5 µM only.
Reply: 50

1 = CCN(Cc1ccc(C(F)(F)F)cn1)C(=O)c1ccc2nc(N)c3c(c2c1)COC3
2 = Cc1cc2cc(C(=O)N(Cc3ccc(C(F)(F)F)cn3)[C@H](C)c3ncccn3)ncc2nc1N
Ask: Looking at 1 and 2 , which one comes out lower in microsomal CLint at 0.5 µM terms? # reply format: chosen label
Reply: 2
(2: 14 µL/min/mg, 1: 30 µL/min/mg)

a = Nc1nc2cnc(C(=O)N3CCOC[C@@H]3c3ccc(C(F)(F)F)cc3)cc2c2c1COC2
b = Nc1nc2ccc(C(=O)N3CCOC[C@H]3c3ccc(C(F)(F)F)cn3)cc2c2c1COC2
c = C[C@H](c1ncccn1)N(Cc1ccc(C(F)(F)F)cn1)C(=O)c1cc2c3c(c(N)nc2cc1F)COC3
d = Cc1cc2cc(C(=O)N(Cc3ccc(C(F)(F)F)cn3)[C@H](C)c3ncccn3)cnc2nc1N
Ask: Returns the items ordered by microsomal CLint at 0.5 µM, from maximum to minimum. To answer, write out the labels according to the requested order.
Reply: c, b, a, d

Reference for the values: ChEMBL document CHEMBL6109134
